# METHOD NOTES: Mouse intestinal organoids' tolerance assay (alamarBlue)
# MEASUREMENT SETUP: C57BL/6, mouse, mouse intestinal organoids (enteroids), Selective Index (SI) CC50/EC50 Ent/T. c, CC50 mouse enteroid / EC50 T. circumcincta

COMPOUND	selectivity ratio at 3 d
CCCCCCCCN=c1ccn(CCCCCCCCCCn2ccc(=NCCCCCCCC)cc2)cc1 [Octenidine, reference compound]	0.9

###

# System: C. elegans
# METHOD NOTES: microbe, parasite or virus in culture
# MEASUREMENT SETUP: Caenorhabditis elegans, 24 h, read-out: Percentage of motility inhibition 24 h, Table S2, C. elegans SS assay, 110 μM, 24 h, averages of 4 data points
Would you mind classing the entries by inhibition at 110 µM? Ranges: L: < 2%; M: ≥ 2% and < 10%; H: ≥ 10%

MOLECULE	MEASUREMENT TARGET	GROUP LABEL
C[C@@H]1CC[C@]2(C(=O)O)CC[C@]3(C)C(=CC[C@@H]4[C@@]5(C)CC[C@H](O)C(C)(C)[C@@H]5CC[C@]43C)[C@@H]2[C@]1(C)O	C. elegans	H
C=C(C)[C@@H]1CC=C2C(=CC[C@]3(C)[C@@H]([C@@H](CCC=C(C)C)C(=O)O)[C@H](O)C[C@@]23C)[C@@]1(C)CCC(=O)O	C. elegans	L
COc1cc(O)c2c(=O)c(O[C@@H]3O[C@H](CO)[C@@H](O)[C@H](O)[C@H]3O)c(-c3ccc(O[C@@H]4O[C@H](CO)[C@@H](O)[C@H](O)[C@H]4O)cc3)oc2c1 [Complanatuside]	C. elegans	H
COc1ccc2c(c1OC)CN1CCc3cc4c(cc3C1C2)OCO4 (centres unmarked) [Tetrahydroberberine]	C. elegans	L
OC[C@@H](O)[C@@H](O)[C@H](O)[C@H](O)CO	C. elegans	L
O=C1N[C@@H]2[C@@H](O)[C@@H](O)[C@H](O)[C@@H](CO)N2C1=O	C. elegans	M
NC(=O)NC1NC(=O)NC1=O (centres unmarked)	C. elegans	H
CC(CC(=O)C[C@@H](C)[C@H]1CC(=O)[C@@]2(C)C3=C(C(=O)C[C@]12C)[C@@]1(C)CCC(=O)C(C)(C)[C@@H]1C[C@@H]3O)C(=O)O (some centres unmarked)	C. elegans	H
Nc1nc(O)c2ncn(COC(CO)CO)c2n1	C. elegans	M
Nc1ccn(C[C@@H](CO)OCP(=O)(O)O)c(=O)n1	C. elegans	M
C[C@@H]1[C@H](O)[C@@H](C)/C=C/C=C/C=C/C=C/C=C/C=C/C=C/[C@H](O[C@@H]2O[C@H](C)[C@@H](O)[C@H](N)[C@@H]2O)C[C@@H]2O[C@](O)(C[C@@H](O)C[C@@H](O)[C@H](O)CC[C@@H](O)C[C@@H](O)CC(=O)O[C@H]1C)C[C@H](O)[C@H]2C(=O)O	C. elegans	H
COC(=O)N[C@H](C(=O)N1CC2(CC2)C[C@H]1c1nc(-c2ccc3c(c2)C(F)(F)c2cc(-c4ccc5[nH]c([C@@H]6[C@H]7CC[C@H](C7)N6C(=O)[C@@H](NC(=O)OC)C(C)C)nc5c4)ccc2-3)c[nH]1)C(C)C	C. elegans	L

###

# Tested on: C. elegans
# MEASUREMENT SETUP: Table S2, C. elegans SS assay, 110 μM, 0 h, averages of 4 data points
Property: Percentage of motility inhibition 0 h; scope: individual molecules
OBSERVABLE: Percentage of motility inhibition 0 h (%)

MOLECULE	UNIT OF MEASURE	RESULT NUMBER
CO/N=C(\C(=O)N[C@@H]1C(=O)N2C(C(=O)O)=C(CSc3nnnn3C)CS[C@H]12)c1csc(N)n1.CO/N=C(\C(=O)N[C@@H]1C(=O)N2C(C(=O)O)=C(CSc3nnnn3C)CS[C@H]12)c1csc(N)n1.Cl [Cefmenoxime (hydrochloride)]	%	15
COc1ccc(-c2oc3c(CC=C(C)C)c(O[C@@H]4O[C@H](CO)[C@@H](O)[C@H](O)[C@H]4O)cc(O)c3c(=O)c2O[C@@H]2O[C@@H](C)[C@H](O)[C@@H](O)[C@H]2O[C@@H]2O[C@@H](C)[C@H](O)[C@@H](O)[C@H]2O)cc1	%	0
CC(N)C12CC3CC(CC(C3)C1)C2.Cl (centres unmarked) [Rimantadine (hydrochloride)]	%	45
C[C@]1(O[C@H]2O[C@H](CO)[C@H](O)[C@H](O)[C@H]2O)C[C@@H](O)[C@@H]2C=CO[C@@H](O[C@@H]3O[C@H](CO)[C@@H](O)[C@H](O)[C@H]3O)[C@@H]21 [Rehmannioside C]	%	0
O=C(O)c1cnc(O)cn1 [5‐hydroxypyr azine‐2‐carboxylic acid]	%	28
CC(C)=CC1CC(O)(C2CCC3(C)C2CCC2C4(C=O)CCC(OC5OCC(O)C(OC6OCC(O)C(O)C6O)C5OC5OC(C)C(O)C(O)C5O)C(C)(C)C4CCC23C)C(O)O1 (centres unmarked) [Gypenoside A]	%	0
C[C@@H]1O[C@@H](O[C@H]2[C@H](OC(=O)[C@]34CCC(C)(C)C[C@H]3C3=CC[C@@H]5[C@@]6(C)C[C@H](O)[C@H](O[C@@H]7O[C@H](CO)[C@@H](O)[C@H](O)[C@H]7O)C(CO)(CO)[C@@H]6CC[C@@]5(C)[C@]3(C)C[C@H]4O)OC[C@H](O)[C@@H]2O)[C@H](O)[C@H](O)[C@H]1O[C@@H]1OC[C@@H](O)[C@H](O)[C@H]1O	%	12
CCc1ccc(O)c2cc3c(nc12)-c1cc2c(c(=O)n1C3)COC(=O)[C@]2(O)CC [12‐Ethyl‐9‐hydroxycamptothecin]	%	16
C/C=C1/CN2[C@H]3Cc4c([nH]c5ccccc45)[C@]2(O)C[C@@H]1[C@@]3(CO)C(=O)OC [16‐Epivoacarpine]	%	7
C=CC(=C)CCCC(C)CCCC(C)CCCC(C)C (centres unmarked)	%	3
Cc1nc(N(C)C(=O)Cc2ccc(-c3ccccn3)cc2)sc1S(N)(=O)=O	%	36
CC1(C)CC[C@]2(C(=O)O)CC[C@]3(C)C(=CC[C@@H]4[C@@]5(C)CC[C@H](O[C@@H]6OC[C@H](O)[C@H](O)[C@H]6O)[C@@](C)(CO)[C@@H]5CC[C@]43C)[C@@H]2C1 [Cauloside A]	%	12
NC[C@@H]1O[C@H](O[C@H]2[C@@H](O)[C@H](O[C@@H]3[C@@H](O)[C@H](N)C[C@H](N)[C@H]3O[C@H]3O[C@H](CO)[C@@H](O)[C@H](O)[C@H]3N)O[C@@H]2CO)[C@H](N)[C@@H](O)[C@@H]1O.O=S(=O)(O)O [Paromomycin (sulfate)]	%	14
COc1cc(OC)c2c(=O)c(OC)c(-c3ccc(OC)c(OC)c3)oc2c1	%	2
CCC(CC)O[C@@H]1C=C(C(=O)O)C[C@H](N)[C@H]1NC(C)=O	%	18
Nc1nc(=O)c2c([nH]1)NCC(CNc1ccc(C(=O)N[C@@H](CCC(=O)O)C(=O)O)cc1)N2C=O (mixture of isomers)	%	11
C=C[C@@H]1C2=CCOC(=O)C2=CO[C@H]1O[C@@H]1O[C@H](CO[C@@H]2O[C@H](CO)[C@@H](O)[C@H](O)[C@H]2O)[C@@H](O)[C@H](O)[C@H]1O [6'-O-beta-D-Glucosylgentiopicroside]	%	34
CC(C)CN(C[C@@H](O)[C@H](Cc1ccccc1)NC(=O)O[C@H]1CO[C@H]2OCC[C@H]21)S(=O)(=O)c1ccc(N)cc1.CCO [Darunavir (Ethanolate)]	%	14
CC1(C)C[C@@H](O)[C@]2(C)CC[C@]3(C)C(=CC[C@@H]4[C@@]5(C)CC[C@H](O[C@@H]6O[C@H](C(=O)O)[C@@H](O)[C@H](O)[C@H]6O[C@@H]6O[C@H](CO)[C@H](O)[C@H](O)[C@H]6O[C@@H]6O[C@H](CO)[C@@H](O)[C@H](O)[C@H]6O)[C@](C)(CO)[C@@H]5CC[C@]43C)[C@@H]2C1	%	0
O=c1cc(-c2ccc(O)c(O)c2)oc2cc(O[C@@H]3O[C@H](CO)[C@@H](O)[C@H](O)[C@H]3O)cc(O)c12 [Cynaroside]	%	20

Attribution: paper PMC11855827
